Attribute: growth
System: MDA-MB-231 breast
Experiment: NCI-60 one-dose screen, 48 h (100 = growth as untreated, 0 = no growth, -100 = all killed)
Details: 10 µM unless noted
About 83,000 compounds went through this panel and 20% of them were active in at least one assay; those are over-represented in the sample as a whole.

Compound | growth, %
CCOC(=O)c1cnc2c(N=Nc3ccc(OC)cc3)c(N)nn2c1N | 101
O=C(N/N=C/c1cc(Cl)ccc1O)c1ccccc1Nc1ccnc(C(F)(F)F)c1 | 50.4
CC(=O)/C(=C/c1ccc([N+](=O)[O-])cc1)C(=O)c1ccccc1 | 91.4
Nc1ncnc2c1N=C(c1ccc3c(c1)OCO3)CC(c1cccc(Nc3ccnc4cc(C(F)(F)F)ccc34)c1)N2 (stereo not given) | 88.4
C=C(C)[C@@H]1CCC[C@]2(C(=O)O)CC[C@]3(C)[C@@H](CC[C@@H]4[C@@]5(C)C/C(=C/c6ccncc6)C(=O)C(C)(C)[C@@H]5CC[C@]43C)[C@@H]12 | 12.2

---

System: MCF7 breast
Assay: NCI-60 one-dose screen, 48 h
Details: 10 µM unless noted
Compounds without any hit were thinned out: in the full panel of roughly 83,000, 20% have a hit. The source made the active and inactive calls. How the source made its calls: active means growth percent below 10; inactive means the rest.
Labels: active, inactive

Compound | Assigned Class
COc1cc(-c2nc3sccn3c2-c2ccnc(NCCNS(=O)(=O)c3ccc(Cl)cc3)n2)ccc1F | inactive
C#COc1cccc(Nc2ncnc3cc(NC(=O)[C@@H](C)Cl)ccc23)c1 | inactive
O=P(O)(O)OCC1OC(n2cnc3c(NCc4ccco4)ncnc32)C(O)C1O (configuration not stated) | active
Cc1ccc2nc(/C(C#N)=C(/CCCO)NC(Cc3ccccc3)C(=O)OCc3ccccc3)[nH]c(=O)c2c1 (configuration not stated) | inactive
COc1cccc(NCc2nnc(Nc3ccc(Cl)cc3)c3ccccc23)c1 | active
CCc1ccc(CCC(=O)Nc2ncc(Cc3cc(Cl)ccc3Cl)s2)o1 | inactive
COc1cc(/C=N/Nc2ccc(Br)cc2)cc(OC)c1OC | inactive

---

Tested on: SNB-75 CNS
Experiment: NCI-60 one-dose screen, 48 h (100 = growth as untreated, 0 = no growth, -100 = all killed)
Conditions: 10 µM unless noted
The panel holds about 83,000 compounds, 20% with a hit somewhere; the sample as a whole holds those more often.
Measured Quantity: growth (%)

Compound | Meas Value
COc1cc2nc3sc(C(=O)Nc4ccc(C(=O)OC(C)C)cc4)c(C(=O)Nc4ccc(Cl)cc4C)n3c(=O)c2cc1OC | 48
CC/C=C\CCC/C=C1/C(=O)C=C[C@@H]1C/C=C\CCCC(=O)OC | 82.7
CCOC(=O)C1=C(C)C(Cl)=N/C1=C\c1[nH]c(Cl)c(C)c1C(=O)OCC | 84.5
N#Cc1cncc(-c2ccc3ncnc(Nc4cccc(Cl)c4)c3c2)c1 | 65.5
COc1cc(C(=O)n2nc(N3CCOCC3)c3cc(-n4cccc4)ccc32)cc(OC)c1OC | 49.8
O=C(Nc1ncc(Cc2ccccc2)s1)c1ccc2c(c1)OCCCO2 | 34.3
CNC(C)[C@H]1CCC2C3CC=C4C(=O)[C@@H](NC(=O)C=C(C)C)CC[C@]4(C)C3CC[C@@]21C (some centres not stated) | 22.5
CN(Cc1ccccc1)c1nc(Cl)c(C2CC(c3ccccc3)=NN2c2ccccc2)s1 (configuration not stated) | 82.3
C=C(CNCCc1ccc(O)cc1)[C@@H]1CC[C@]2(CO)CC[C@]3(C)[C@H](CC[C@@H]4[C@@]5(C)CCC(=O)C(C)(C)[C@@H]5CC[C@]43C)[C@@H]12 | 91.2
O=C(N=Nc1c(O)[nH]c2ccccc12)Nc1ccc(F)cc1 | 91.3
Cc1ccc(C(=O)c2ccc(CC(=O)N=Nc3c(O)[nH]c4ccc(Br)cc34)n2C)cc1 | 84
Cc1ccc(/C=C(\C#N)n2nnc3cc(F)c(F)cc32)cc1 | -15.2
Cc1ccc(S(=O)(=O)Oc2ccc3sc4cccc(NCCN(C)C)c4c(=O)c3c2)cc1 | -92.9
NC(=O)c1cccc([C@@H]2O[C@H](CO)[C@@H](O)[C@H]2O)c1 | 9.91
NS(=O)(=O)c1ccc(-c2cc(-c3nnc(SCC(=O)Nc4ccc(C(=O)/C=C/c5ccc(Cl)cc5)cc4)n3-c3ccccc3)c3ccccc3n2)cc1 | 54
CCNC(=O)Oc1ccc(/C(=C(/C)Cc2ccc(OC)cc2)c2ccc(OCCN3CCCCC3)cc2)cc1 | 69
COc1ccc(CCN(CC(=O)N(CC(N)=O)C2CCC[C@@H]2OCc2ccccc2)C(=O)CN(C(=O)CN(CCc2ccc(Cl)cc2)C(=O)CN(C(=O)CN(C)Cc2ccccc2F)[C@H](C)C2CCCCC2)[C@H](C)C2CCCCC2)cc1OC (some centres not stated) | 53.5
S=C(c1ccc2c(c1)OCO2)N1CCN(c2cccc(Cl)c2)CC1 | 12.5
CC1(C)CC[C@]23CC[C@]4(C)[C@H](CC[C@@H]5[C@@]6(C)C/C(=C/c7ccncc7)C(=O)C(C)(C)[C@@H]6CC[C@]54C)[C@H]2[C@H]1OC3 | 61.4
Cc1[nH]c(C2CC(c3ccc(C(F)(F)F)c(F)c3)=NN2c2ccccc2)c(C)c1C(=O)NCC(F)(F)F (configuration not stated) | 82.5
COc1ccc(/C(C)=C(/c2ccc(OCCCN(C)C)cc2)c2ccc(OC(=O)c3ccccc3)cc2)cc1 | 105
O=C1/C(=C/c2ccccc2F)CN(C(=O)C(Cl)Cl)C/C1=C\c1ccccc1F | -18.4
C#CCOc1cccc(-c2ncnc3cc(NC(=O)C=C)ccc23)c1 | 10.6
CC[C@]12C=CCN3CC[C@@]4(c5ccc(OC)cc5N(C)[C@H]4[C@@](O)(C(=O)OC)[C@@H]1OC(=O)CCC[P+](c1ccccc1)(c1ccccc1)c1ccccc1)[C@@H]32 | -4.39
Cn1cc(-c2csc(-c3cn(CCCN4CCOCC4)c4ccccc34)n2)c2cccnc21 | 82.6
CN1CCN(c2ccc(NC(=O)c3cncnc3Nc3ccc(OCc4cccc(F)c4)c(Cl)c3)cc2)CC1 | 68.3
C[C@]1(O)CC(=O)[C@]2(O)C3=C(C=C[C@]2(O)C1)C(=O)c1c(O)cccc1C3=O | 20

---

As shown below, each of these compounds has a reported growth value.
System: HS 578T breast
Assay: NCI-60 one-dose screen, 48 h (100 = growth as untreated, 0 = no growth, -100 = all killed)
Settings: 10 µM unless noted
Compounds without any hit were thinned out: in the full panel of roughly 83,000, 20% have a hit. Calls of active or inactive are those of the source. The calls were made as follows: active = growth percent below 10; inactive = the rest.

Compound | growth
Cc1ccc(S(=O)(=O)N2CCC(=O)c3ccccc32)cc1 | 71.7% (inactive)
CC1(C)N=C(N)N=C(N)N1c1cccc(CCc2ccccc2)c1 | 70.4% (inactive)
Nc1nc(N)c2c(n1)NC(c1cccc(Nc3ccnc4cc(C(F)(F)F)ccc34)c1)CC(c1ccc(Br)cc1)=N2 (stereo not drawn) | 68.4% (inactive)

---

Quick list: growth per entry.
Tested on: NCI-H23 lung
Experiment: NCI-60 one-dose screen, 48 h (100 = growth as untreated, 0 = no growth, -100 = all killed)
Settings: 10 µM unless noted
The panel holds about 83,000 compounds, 20% with a hit somewhere; the sample as a whole holds those more often.
Measured Quantity: growth (%)

Smiles Record | Meas Value
Cc1ccc(C(=O)Nc2cccc(C#Cc3cccc4[nH]nc(N)c34)c2)cc1C(F)(F)F | 51.8
CCCCNC(=O)Oc1ccc(/C(=C(/C)Cc2ccc(OC)cc2)c2ccc(OCCN3CCCCCC3)cc2)cc1 | 85
CCN(CC)c1ccc(CNc2cc(C)nc3ccccc23)cc1 | 26.9
O=C1/C(=C\c2ccccn2)c2ccccc2N1c1c(Cl)cccc1Cl | 13

---

System: K-562 leukemia
Test: NCI-60 one-dose screen, 48 h
Details: 10 µM unless noted
Compounds without any hit were thinned out: in the full panel of roughly 83,000, 20% have a hit. Active and inactive are the calls of the source. Rule for the calls: active = growth percent below 10; inactive = the rest.
Possible outcomes: yes (active), no (inactive)

Compound | Measured Target | Assigned Class
C=C1C(=O)O[C@H]2[C@H]1CC/C(CNC(=O)c1c[nH]c3ccc(F)cc13)=C\CC[C@@]1(C)O[C@@H]21 | K-562 leukemia | yes
CN(C)c1ccc(-c2ccc3c(c2)c(-c2ccccc2)nc(=O)n3C)cn1 | K-562 leukemia | yes
N#Cc1ccc(O)c(C2=NCC(Cc3ccccc3)O2)c1 (centres undefined) | K-562 leukemia | no
O=[N+]([O-])c1ccc(-c2cn3nc(-c4c[nH]c5ccccc45)sc3n2)cc1 | K-562 leukemia | no
CC[N+]1(CC)CC[N+]2(CCCC(C)CC2)CC1 (centres undefined) | K-562 leukemia | no
O=C(Oc1ccc(CCl)cc1)c1ccccc1 | K-562 leukemia | yes
CCN(CC)Cc1cc(Nc2ccnc3cc(Cl)ccc23)ccc1O | K-562 leukemia | no
CC(C)(C)c1cc(Cl)c(O)c(CNCCO)c1 | K-562 leukemia | no
CNCc1cccc2c1OCCOCCOCCNS(=O)(=O)c1ccc(cc1)-c1cnc(N)c(n1)C(=O)N2 | K-562 leukemia | yes
